Values compiled from paper PMC10397247.

TARGET: T1, P6-AA-1HGe-W
T1 chain: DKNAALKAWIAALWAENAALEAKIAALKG
MEASUREMENT_NOTES: two-hybrid library CCmax;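 further: natural log of median RNA to DNA barcode read ratio; higher means stronger binding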
CONDITION_SET: mean of both orientations
Mark each entry satisfied if its interaction score sits below 2, and not satisfied for all others.

[ask] Does DENAALEATIAALTAKNAALKAEIAALEG [P5-AA-1HGe-T] have interaction score strictly under 2?
[reply] satisfied

[ask] Does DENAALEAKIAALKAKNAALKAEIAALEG [4H1401-AA] have interaction score strictly under 2?
[reply] satisfied

[ask] Does DENAALEAAIAALAAKNAALKAEIAALEG [P5-AA-1HGe-A] have interaction score strictly under 2?
[reply] satisfied

[ask] Does DENAALEAMIAALMAKNAALKAEIAALEG [P5-AA-1HGe-M] have interaction score strictly under 2?
[reply] not satisfied

[ask] Does DENAALEAWIAALWAKNAALKAEIAALEG [P5-AA-1HGe-W] have interaction score strictly under 2?
[reply] satisfied

[ask] Does DENAALEADIAALDAKNAALKAEIAALEG [P5-AA-1HGe-D] have interaction score strictly under 2?
[reply] satisfied
